# Study Target: Zinc finger protein GLI1 (Mus musculus) (UniProt P47806)
# Sequence (P47806 whole entry): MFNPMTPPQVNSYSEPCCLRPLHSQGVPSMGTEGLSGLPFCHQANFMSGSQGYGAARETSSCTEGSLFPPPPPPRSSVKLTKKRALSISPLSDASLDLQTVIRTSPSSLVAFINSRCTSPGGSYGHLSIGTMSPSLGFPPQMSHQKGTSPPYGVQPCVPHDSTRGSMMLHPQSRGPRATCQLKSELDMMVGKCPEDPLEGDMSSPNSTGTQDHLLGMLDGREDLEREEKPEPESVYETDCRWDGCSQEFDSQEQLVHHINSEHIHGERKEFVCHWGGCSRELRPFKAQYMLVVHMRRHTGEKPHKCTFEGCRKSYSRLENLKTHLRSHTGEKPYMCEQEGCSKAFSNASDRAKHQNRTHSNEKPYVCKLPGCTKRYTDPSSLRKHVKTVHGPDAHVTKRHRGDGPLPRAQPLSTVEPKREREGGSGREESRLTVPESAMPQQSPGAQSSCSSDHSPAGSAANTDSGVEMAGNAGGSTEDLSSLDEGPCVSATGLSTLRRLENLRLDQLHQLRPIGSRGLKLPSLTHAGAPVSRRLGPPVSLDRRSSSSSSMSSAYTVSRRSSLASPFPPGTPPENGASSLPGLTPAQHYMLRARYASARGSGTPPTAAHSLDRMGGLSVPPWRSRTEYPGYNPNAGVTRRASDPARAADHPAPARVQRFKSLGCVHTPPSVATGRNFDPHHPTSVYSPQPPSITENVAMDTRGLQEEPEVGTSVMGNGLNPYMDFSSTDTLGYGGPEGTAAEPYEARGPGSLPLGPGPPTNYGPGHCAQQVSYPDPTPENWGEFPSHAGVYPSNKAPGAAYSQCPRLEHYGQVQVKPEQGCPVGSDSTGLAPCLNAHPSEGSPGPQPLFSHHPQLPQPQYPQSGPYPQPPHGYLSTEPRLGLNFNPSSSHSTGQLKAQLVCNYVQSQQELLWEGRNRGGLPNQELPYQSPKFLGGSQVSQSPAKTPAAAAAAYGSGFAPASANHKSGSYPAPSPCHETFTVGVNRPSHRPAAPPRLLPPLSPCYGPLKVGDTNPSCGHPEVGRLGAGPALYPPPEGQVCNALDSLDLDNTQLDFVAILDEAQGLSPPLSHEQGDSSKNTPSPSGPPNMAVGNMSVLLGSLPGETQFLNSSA
# Protocol Text: Inhibition of GLI1 transcriptional activity in HH-responsive mouse NIH3T3 cells assessed as reduction in SAG-induced luciferase activity at 5 uM incubated for 48 hrs by luciferase reporter gene assay relative to control
# Assay type: cell-based
Measure Name: inhibition
State the value, then name its unit.

Please review the entries below; each comes with its answer.
- Compound: "CCOC(=O)c1c(-c2ccccc2)csc1NC(NC(C)=O)C(Cl)(Cl)Cl (centres undefined)"
  Reported Value: "38%"
- Compound: "COc1c(O)cc2oc3cc(O)c(CC=C(C)C)c(O)c3c(=O)c2c1CC=C(C)C [MANGOSTIN]"
  Reported Value: "43%"
- Compound: "O=C(NC1CCCc2ccccc21)c1cnn2c(C(F)(F)F)cc(-c3cccs3)nc12 (centres undefined)"
  Reported Value: "49%"

Turning to the following compound.
Could you tell me which inhibition is on file for CCOC(=O)c1c(-c2ccccc2)csc1NC(NC(=O)c1ccccc1)C(Cl)(Cl)Cl (centres undefined) ?
40%
